# experimental-system: T1, CD71 apical domain (human, UniProt P02786 189-383, limits assumed)
# T1 construct: domain: apical domain
# T1 sequence (P02786 189-383 limits assumed): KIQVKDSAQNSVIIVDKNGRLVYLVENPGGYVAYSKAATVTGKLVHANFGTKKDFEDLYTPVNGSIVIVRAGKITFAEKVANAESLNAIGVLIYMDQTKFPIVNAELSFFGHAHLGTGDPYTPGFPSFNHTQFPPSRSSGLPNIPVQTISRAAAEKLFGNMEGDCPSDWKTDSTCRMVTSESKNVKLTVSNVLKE
# measurement-notes: solution ELISA screen (luminescence)
result-type: RLU (RLU)
Record the value in RLU, omitting the unit from your answer.

binder	unit-descriptor	RLU
SEQ ID NO 218 (designed binder, not shown: small tags and cut ends) MLPAPKNLVVSRVTEDSARLSWTAPDAAFDSFYIAYAEPRPDGEAIHLVVPGSERSYDLTGLKPGTEYSVLIHGVKGGLLSSPLSAIFTT	RLU	2.85e+06

Note: attention shifts to another entry.
Q. Query (binder): SEQ ID NO 203 (designed binder, not shown: small tags and cut ends) MLPAPKNLVVSRVTEDSARLSWTAPDAAFDSFFIGYLEPQPPGEAIVLLVPGSERSYDLTGLKPGTEYNVTIQGVKGGFPSVPLAAFFTT ; field requested: RLU
A. 5.69e+06
